Values from patent US20250019439A1

tested-system: T1, ADI-74966
T1 construct: pH-dependent anti-CD3 antibody made in CHO cells
T1 sequence (VH, as listed by the source, chain 1 of 2): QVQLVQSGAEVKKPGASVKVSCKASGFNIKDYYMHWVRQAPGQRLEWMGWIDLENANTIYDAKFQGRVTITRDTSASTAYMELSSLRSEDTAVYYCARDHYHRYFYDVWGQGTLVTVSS
T1 sequence (VL, as listed by the source, chain 2 of 2): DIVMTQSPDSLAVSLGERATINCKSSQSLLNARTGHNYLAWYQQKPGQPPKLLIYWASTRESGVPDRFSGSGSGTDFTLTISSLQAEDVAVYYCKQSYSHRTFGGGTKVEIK
method-description: SPR Carterra avidity, yeast anti-ID
metric: pKd
Numbers only, as −log10 of the molar value.

Below: 2 binders and their reported pKd.
- ADI-34135 (antibody, V domains shown, anti-ID IgG) VH: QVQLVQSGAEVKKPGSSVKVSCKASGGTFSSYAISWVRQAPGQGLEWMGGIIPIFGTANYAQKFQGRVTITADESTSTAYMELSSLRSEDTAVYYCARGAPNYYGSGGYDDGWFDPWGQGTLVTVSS VL: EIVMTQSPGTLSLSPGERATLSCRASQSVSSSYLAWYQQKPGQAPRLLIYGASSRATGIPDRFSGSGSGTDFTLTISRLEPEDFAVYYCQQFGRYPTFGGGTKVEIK: 9.46
- ADI-34132 (antibody, V domains shown, anti-ID IgG) VH: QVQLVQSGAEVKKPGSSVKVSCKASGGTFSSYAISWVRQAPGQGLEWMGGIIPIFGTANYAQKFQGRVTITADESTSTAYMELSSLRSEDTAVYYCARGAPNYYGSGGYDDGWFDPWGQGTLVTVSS VL: DIQLTQSPSSLSASVGDRVTITCRASQSISSYLNWYQQKPGKAPKLLIYAASNLQSGVPSRFSGSGSGTDFTLTISSLQPEDFATYYCQQTLHTPITFGGGTKVEIK: 9.24

Here is the next item to consider.
Query: Return reported pKd; argument: ADI-30242 (antibody, V domains shown, anti-ID IgG) VH: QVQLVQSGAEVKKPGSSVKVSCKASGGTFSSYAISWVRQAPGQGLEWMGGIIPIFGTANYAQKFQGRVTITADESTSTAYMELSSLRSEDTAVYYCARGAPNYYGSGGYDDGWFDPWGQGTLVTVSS VL: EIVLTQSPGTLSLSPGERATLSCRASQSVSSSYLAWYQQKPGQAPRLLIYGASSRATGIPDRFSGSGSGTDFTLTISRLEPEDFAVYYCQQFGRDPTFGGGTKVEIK
Result: 7.60
